Target: IRAK4 (Homo sapiens, UniProt Q9NWZ3)
Construct: endogenous in cells; host or cells: THP-1 cells
Sequence (Q9NWZ3 whole entry): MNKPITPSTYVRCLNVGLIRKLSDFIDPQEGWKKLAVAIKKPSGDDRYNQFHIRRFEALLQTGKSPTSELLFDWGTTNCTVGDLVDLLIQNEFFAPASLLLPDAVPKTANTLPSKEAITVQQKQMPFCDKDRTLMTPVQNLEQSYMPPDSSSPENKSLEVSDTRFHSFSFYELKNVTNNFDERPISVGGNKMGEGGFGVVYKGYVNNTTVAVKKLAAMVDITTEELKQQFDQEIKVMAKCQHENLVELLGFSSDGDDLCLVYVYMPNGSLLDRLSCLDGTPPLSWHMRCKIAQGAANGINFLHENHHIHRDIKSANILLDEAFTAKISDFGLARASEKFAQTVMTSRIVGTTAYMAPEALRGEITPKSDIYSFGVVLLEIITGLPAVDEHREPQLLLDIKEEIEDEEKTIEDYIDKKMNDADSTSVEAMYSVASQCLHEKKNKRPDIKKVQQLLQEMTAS
Assay: LVL THP1 HTRF (THP1 Homogeneous Time Resolved Fluorescence)
Assay type: cell-based
Conditions: THP1 cells, 18 h incubation with compound
MEASURED_PARAMETER: LVL THP1 HTRF YMIN (%)

Recorded results for 5 compounds are shown here.
Exercise: Consider the compound shown here: N#Cc1cnc2c(cnn2-c2cc(NCC3CCOCC3)c(-n3cc([C@H]4CC[C@H](CCN5CCN(c6ccc(C7CCC(=O)NC7=O)cc6)CC5)CC4)nn3)cn2)c1 (stereo partly drawn) What is its recorded LVL THP1 HTRF YMIN?
Solution: 5.6

Exercise: Next: CC(C)(O)CNc1cc(-n2ncc3cc(C#N)cnc32)ncc1-n1cc([C@H]2CC[C@H](CCN3CCN(c4ccc(C5CCC(=O)NC5=O)cc4)CC3)CC2)nn1 (stereo partly drawn)
Solution: −0.8

Exercise: Next: C[C@H](C#N)Nc1cc(Nc2ncc(C#N)cc2Cl)ncc1-n1cc([C@H]2CC[C@H](CCN3CC4(CC(c5ccc(N6CCC(=O)NC6=O)cn5)C4)C3)CC2)nn1
Solution: 15.5

Exercise: Next: C[C@H](C#N)Nc1cc(-n2ncc3cc(C#N)c(N)nc32)ncc1-n1cc([C@H]2CC[C@H](CCN3[C@@H](C)CN(c4ccc([C@@]5(C)CCC(=O)NC5=O)cc4)C[C@@H]3C)CC2)nn1
Solution: 1.9

Exercise: Next: Cc1cc(N2CC[C@H]3[C@@H]2CCN3CC[C@H]2CC[C@H](NC(=O)c3cnc(-n4ncc5cc(C#N)cnc54)cc3N[C@H](C)C#N)CC2)ccc1N1CCC(=O)NC1=O [P-489]
Solution: 84.3

1: C[C@H](C#N)Nc1cc(-n2ncc3cc(C#N)cnc32)ncc1-n1cc([C@H]2CC[C@H](CCN3CC[C@H]4[C@@H]3CCN4c3ccc([C@@]4(C)CCC(=O)NC4=O)cc3)CC2)nn1 (single isomer, unassigned) [P-462]
2: N#Cc1cnc2c(cnn2-c2cc(OCC3CCOCC3)c(-n3cc([C@H]4CC[C@H](CCN5CCN(c6ccc(C7CCC(=O)NC7=O)cc6)CC5)CC4)nn3)cn2)c1 (stereo partly drawn)
3: C[C@H](C#N)Nc1cc(-n2ncc3cc(C#N)cnc32)ncc1-n1cc([C@H]2CC[C@H](CCN3CCN(c4ccc5c(N6CCC(=O)NC6=O)nn(C)c5c4)[C@H](C)C3)CC2)nn1
4: COc1cc(N2CCN(CC[C@H]3CC[C@H](c4cn(-c5cnc(-n6ncc7cc(C#N)cnc76)cc5N[C@H](C)C#N)nn4)CC3)CC2)ccc1N1CCC(=O)NC1=O
Exercise: Descending sort on LVL THP1 HTRF YMIN required. Returns: the labels listed in the requested order.
Solution: 2, 1, 4, 3
